Reported pKi by item:
Target: ETA receptor (ETAR) (Homo sapiens, UniProt P25101)
Sequence (P25101 21-427): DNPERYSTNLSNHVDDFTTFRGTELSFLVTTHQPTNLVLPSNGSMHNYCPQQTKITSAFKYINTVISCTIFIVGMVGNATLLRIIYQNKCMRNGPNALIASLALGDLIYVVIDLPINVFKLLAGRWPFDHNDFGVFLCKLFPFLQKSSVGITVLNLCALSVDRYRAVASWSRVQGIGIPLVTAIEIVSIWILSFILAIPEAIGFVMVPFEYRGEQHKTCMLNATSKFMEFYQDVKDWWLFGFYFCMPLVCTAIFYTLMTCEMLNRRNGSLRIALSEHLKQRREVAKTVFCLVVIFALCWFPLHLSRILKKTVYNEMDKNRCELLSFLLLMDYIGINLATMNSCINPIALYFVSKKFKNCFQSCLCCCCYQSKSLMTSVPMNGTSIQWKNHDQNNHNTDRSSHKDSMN
Experiment: […]ET-1 radioligand displacement, recombinant human ETA in CHO-K1 cells
Conditions: read-out: ETAh 10^-5 M ^a
pKi: −log10 of the molar value. Square brackets hold non-standard residues; d marks the D form. Peptide text beside a SMILES is read from it.
Recorded metric: pKi

Compound: COc1ccc(CN2C(=O)C[C@H](c3ccc4c(c3)OCO4)[C@H]2C(=O)O)cc1 (racemic) [31h]
Meas value: 5.48
//
Compound: CC(C)C[C@@H]1NC(=O)[C@@H](C(C)C)NC(=O)[C@@H]2CCCN2C(=O)[C@@H](CC(=O)O)NC(=O)[C@@H](Cc2c[nH]c3ccccc23)NC1=O [BQ-123] (cyclo(L[dW][dD]P[dV]))
Meas value: 8.27
